Test system: MDA-MB-435
Give your call using only these classes: 1 = active, 0 = inactive

Take a look at these entries with their results.
{"columns": ["molecule", "labelClass"],
 "data": [
  ["CC(C)(C)n1cc(-c2ccnc(NCCCNS(=O)(=O)c3ccc(Cl)cc3)c2)c(-c2cccc(O)c2)n1", 0],
  ["Cc1sc2c(c1C)C(c1ccc(Cl)cc1)=N[C@@H](CC(=O)Nc1ccc(O)cc1)c1nnc(C)n1-2", 1],
  ["COc1ccc(Cn2c3c(c4c(O)cccc42)C(=O)c2ccccc2-3)cc1", 0],
  ["Clc1ccc2c(NCCN3CCN(c4ccnc(N5CCCC5)n4)CC3)ccnc2c1", 0]
]}

query: Recorded test outcome, item `CCN1CCN(c2nc(C)cc(N(CCCNc3ccnc4cc(Cl)ccc34)Cc3ccco3)n2)CC1`
result: 0

query: Any idea what this test logged for `COc1cc(/C=N/O)nc(-c2ccccn2)c1` ?
result: 0

query: Recorded test outcome, item `OCCCCC#Cc1ccccc1C#Cc1cccs1`
result: 0

query: Outcome? CCCCCCCCCCC(CN(CC)CC)C(O)c1ccccc1 (stereo not drawn)
result: 0

---

Test system: NCI-H460 lung
Test: NCI tumour cell line growth inhibition, 48 h
resultType: TGI (µM)
One number for each entry, in µM.

{"columns": ["molecule", "experimentalTarget", "TGI (µM)"],
 "data": [
  ["O=C(Nn1c2c(sc1=NC1CC1)C(=O)c1ccccc1C2=O)c1cc2ccc1CCc1ccc(cc1)CC2", "NCI-H460 lung", 12.2]
]}

Here are 3 molecules. What values of TGI were reported for them?
1. CO[C@H]1/C=C/C[C@H](C)[C@@H](C)S(=O)(=O)NC(=O)c2ccc3c(c2)N(C[C@@H]2CC[C@H]21)C[C@@]1(CCCc2cc(Cl)ccc21)CO3
2. O=C1/C(=C/c2ccc(C(F)(F)F)cc2)COc2ccc(O)cc21
3. CCN1CCC(O)(c2ccc(Cl)c(Cl)c2)C(C(=O)c2ccc(Cl)c(Cl)c2)C1 (stereo not given)

result:
[4.17, 10.4, 43.6]

---

Tested on: MOLT-4 leukemia
Assay: NCI tumour cell line growth inhibition, 48 h
For each record, write down the corresponding TGI.
One number for each entry, in µM.

{"columns": ["compound", "TGI [µM]"],
 "data": [
  ["Cc1cc(NS(=O)(=O)c2ccc(NC(=O)c3cccc4c(NNc5ccc(S(N)(=O)=O)cc5)c5ccccc5nc34)cc2)no1", 87.9],
  ["CCOc1ccc(-n2c(=O)n3c(Nc4ccc(Cl)cc4)nc4c(c(=O)n(C)c(=O)n4C)n3c2=O)cc1", 69.9],
  ["COc1ccc(Cn2cc3c(c2-c2ccccc2)CCc2cncnc2-3)cc1", 11.1],
  ["Cc1sc2c(c1C)C(c1ccc(Cl)cc1)=N[C@@H](CC(=O)Nc1ccc(O)cc1)c1nnc(C)n1-2", 54.7],
  ["Cc1cccc2cc3ccc4ccccc4c3cc12", 70.9]
]}

For each listed entry, give its TGI.
1. CC1(C)CC(O)CCCCCCOc2c(CN)cccc2NC(=O)c2nc(cnc2N)-c2ccc(cc2)S1(=O)=O (centres undefined)
2. O/N=C1/C(=C/c2ccccc2)CCCC1C(NO)c1ccccc1 (centres undefined)
3. O=C(Nc1ccccc1)OCc1nc2c([nH]1)C(=O)C=CC2=O
4. Cc1ccc(C(=O)/C=C/N2CCN(c3cccc(C(F)(F)F)c3)CC2)cc1
5. C=C1C(=O)O[C@H]2[C@H]1CC/C(COC(=O)NCc1cccc(OC)c1)=C\CC[C@@]1(C)O[C@@H]21

result:
1: 2.01; 2: 90.8; 3: 6.71; 4: 48.2; 5: 7.19
